Values from ChEMBL document CHEMBL4308855

Tested on: Saccharomyces cerevisiae
Assay: Inhibition of Saccharomyces cerevisiae alpha-glucosidase at 1 mM using […] preincubated for 5 mins followed by substrate addition and measured after 15 mins relative to control
Conditions: in the assay text read “p-nitrophenyl alpha-D-glucopyranoside” for “p-nitrophenyl beta-D-glucopyranoside”
Catalogue of inhibition values

- COMPOUND: "Clc1ccc(C2=CC(c3ccc(Cl)cc3)c3c(ccc4ccccc34)O2)cc1 (centres undefined)"
  VALUE_UNIT: "%"
  inhibition: 14.9
- COMPOUND: "Clc1ccc(C2C=C(c3ccccc3)Oc3ccc4ccccc4c32)cc1 (centres undefined)"
  VALUE_UNIT: "%"
  inhibition: 18.3
- COMPOUND: "COc1ccc(C2CCc3c(ccc4ccccc34)O2)cc1 (centres undefined)"
  VALUE_UNIT: "%"
  inhibition: 19.7
- COMPOUND: "C[C@H]1O[C@H](O[C@H]2[C@H](O)[C@@H](O)[C@@H](O[C@H]3[C@H](O)[C@@H](O)C(O)O[C@@H]3CO)O[C@@H]2CO)[C@H](O)[C@@H](O)[C@@H]1N[C@H]1C=C(CO)[C@@H](O)[C@H](O)[C@H]1O (some centres undefined)"
  VALUE_UNIT: "%"
  inhibition: 55.8
- COMPOUND: "C1=C(c2ccccc2)Oc2ccc3ccccc3c2C1c1ccccc1 (centres undefined)"
  VALUE_UNIT: "%"
  inhibition: 39.6
- COMPOUND: "C1=C(c2ccccc2)Oc2ccccc2C1c1ccccc1 (centres undefined)"
  VALUE_UNIT: "%"
  inhibition: 60.8
- COMPOUND: "COc1ccc(C2C=C(c3ccc(O)cc3)Oc3ccc4ccccc4c32)cc1 (centres undefined)"
  VALUE_UNIT: "%"
  inhibition: 36.1
- COMPOUND: "COc1ccc(C2C=C(c3ccccc3)Oc3ccc4ccccc4c32)cc1OC (centres undefined)"
  VALUE_UNIT: "%"
  inhibition: 43.7
- COMPOUND: "C1=C(c2ccccc2)Oc2ccc3ccccc3c2C1"
  VALUE_UNIT: "%"
  inhibition: 10.8

* * *

Catalogue of pIC50 values
Experiment: Inhibition of Saccharomyces cerevisiae alpha-glucosidase using […] preincubated for 5 mins followed by substrate addition and measured after 15 mins
Settings: in the assay text read “p-nitrophenyl alpha-D-glucopyranoside” for “p-nitrophenyl beta-D-glucopyranoside”
pIC50: −log10 of the molar value.

- MOLECULE: "C1=C(c2ccccc2)Oc2ccccc2C1c1ccccc1 (stereo unspecified)"
  RELATION: "="
  pIC50: 4.21
- MOLECULE: "COc1ccc(C2C=C(c3ccccc3)Oc3ccc4ccccc4c32)cc1OC (stereo unspecified)"
  RELATION: "<"
  pIC50: 3.00
- MOLECULE: "Clc1ccc(C2=CC(c3ccccc3)c3ccccc3O2)cc1 (stereo unspecified)"
  RELATION: "="
  pIC50: 3.02
- MOLECULE: "CCc1ccc(C2=CCc3c(ccc4ccccc34)O2)cc1"
  RELATION: "="
  pIC50: 3.19
- MOLECULE: "C[C@H]1O[C@H](O[C@H]2[C@H](O)[C@@H](O)[C@@H](O[C@H]3[C@H](O)[C@@H](O)C(O)O[C@@H]3CO)O[C@@H]2CO)[C@H](O)[C@@H](O)[C@@H]1N[C@H]1C=C(CO)[C@@H](O)[C@H](O)[C@H]1O (stereo partly specified)"
  RELATION: "="
  pIC50: 3.26
- MOLECULE: "Cc1ccc(C2=CC(c3ccc(Cl)cc3)c3c(ccc4ccccc34)O2)cc1 (stereo unspecified)"
  RELATION: "="
  pIC50: 3.05

* * *

Test system: Saccharomyces cerevisiae
Assay: Inhibition of Saccharomyces cerevisiae alpha-glucosidase at 1 mM using […] preincubated for 5 mins followed by substrate addition and measured after 15 mins relative to control
Conditions: in the assay text read “p-nitrophenyl alpha-D-glucopyranoside” for “p-nitrophenyl beta-D-glucopyranoside”
MEASUREMENT_LABEL: inhibition (%)

- MOLECULE: "Clc1ccc(C2=CC(c3ccccc3)c3ccccc3O2)cc1 (stereo not drawn)"
  TEST_SYSTEM: "Saccharomyces cerevisiae"
  VALUE_UNIT: "%"
  MEASURED_RESULT: 69
- MOLECULE: "CCc1ccc(C2=CCc3c(ccc4ccccc34)O2)cc1"
  TEST_SYSTEM: "Saccharomyces cerevisiae"
  VALUE_UNIT: "%"
  MEASURED_RESULT: 91.7
- MOLECULE: "Cc1ccc(C2=CC(c3ccc(Cl)cc3)c3c(ccc4ccccc34)O2)cc1 (stereo not drawn)"
  TEST_SYSTEM: "Saccharomyces cerevisiae"
  VALUE_UNIT: "%"
  MEASURED_RESULT: 47.6
